- Test system: U251 CNS
Outcomes: 1 (active), -1 (inactive)

Compound | Target Entity | Assigned Label
CCN(CC)c1ccc(-c2cc(-c3cc(OC)c(OC)c(OC)c3)nc(N3CCOCC3)c2C#N)cc1 | U251 CNS | -1
CCN1CCN(c2nc(C)cc(N(CCNc3ccnc4cc(Cl)ccc34)Cc3ccc4c(c3)OCO4)n2)CC1 | U251 CNS | -1
OCCCCCNCc1cc2cc3c(cc2c2cc(OCc4ccccc4)ccc12)OCO3 | U251 CNS | -1
Cc1cc2c(cc1Cl)SC(N(N(C)C)S(=O)(=O)c1ccc(Cl)cc1)=NS2(=O)=O | U251 CNS | -1
C=C1NC(=O)C(C(C)CC)NC(=O)C2CSCC(NC(=O)CCC(=O)O)C(=O)NC(Cc3ccccc3)C(=O)NC(C)C(=O)NC(CC(C)CC)C(=O)NC(C(=O)NC(Cc3ccccc3)C(=O)N3CCCC3C(=O)N2)C(C)OC(=O)C(CO)NC(=O)C(C(O)COC)N(C)C(=O)C(C(C)C)NC(=O)C(CC(C)CC)NC1=O (stereo not given) | U251 CNS | 1
Nc1ncnc2n[nH]c(Nc3ccc(F)cc3)c12 | U251 CNS | -1
Cc1cccc(NC(=O)Cn2cnc3sc(C(=O)OC(C)C)c(C)c3c2=O)c1 | U251 CNS | -1
COc1ccc([C@H]2[C@@H](F)C(=O)N2c2cc(OC)c(OC)c(OC)c2)cc1F | U251 CNS | 1
Fc1cc2[nH]ncc2c2c3c(c(-c4cn[nH]c4)nc12)CCCC3 | U251 CNS | -1
CC[C@H](Nc1ncnc2nc[nH]c12)c1oc2ccccc2c(=O)c1-c1cccc(F)c1 | U251 CNS | -1

###

- Test system: MOLT-4 leukemia
- Experiment Description: NCI tumour cell line growth inhibition, 48 h
Entries and their measured GI50 follow.

Smiles Code | GI50
Cn1cnc([N+](=O)[O-])c1S(=O)(=O)Oc1cccc2ccccc12 | 3.37 µM
O=C(Nc1ccc(Cl)cc1)c1cccc(NC2=C(Cl)C(=O)N(Cc3ccccc3)C2=O)c1 | 12.1 µM
COc1cc(/C=C/c2cc(O)c(C(C)=O)c(O)c2)cc2c1O[C@]1(C)CC[C@@H](O)C(C)(C)[C@H]1C2 | 3.22 µM
Cc1cc2c(cc1Cl)SC(N(N(C)C)S(=O)(=O)c1ccc(Cl)cc1)=NS2(=O)=O | 35 µM

###

- Tested on: HOP-62 NSCLC
- Experiment Description: NCI tumour cell line growth inhibition, 48 h
Examples of compounds with documented TGI follow.

Compound | TGI
Cn1c2ccccc2c2cc(-c3ccccc3)c3c(c21)C(=O)c1ccccc1C3=O | > 100 µM
Nc1ncnc2c1nnn2C1OC(CO)C(O)C1O (centres undefined) | 5.78 µM
CC(C)OP(=O)(OC(C)C)C(=NCCN=C(NNc1ccc([N+](=O)[O-])cc1)P(=O)(OC(C)C)OC(C)C)NNc1ccc([N+](=O)[O-])cc1 | > 100 µM
CCCCCCN(CCCCCC)C(=O)Cc1c2n(c3ccccc13)Cc1ccccc1-2 | > 100 µM
CCOC(=O)c1ccc(NCC#CCN2CCOCC2)cc1 | > 100 µM
CCN(CC)c1ccc(-c2cc(-c3cc(OC)c(OC)c(OC)c3)nc(N3CCOCC3)c2C#N)cc1 | 16.5 µM
COc1ccc([C@H]2[C@@H](F)C(=O)N2c2cc(OC)c(OC)c(OC)c2)cc1F | > 100 µM
CC1(C)C2CCC1(C)[C@H](n1c(=O)n([C@@H]3CC4CCC3(C)C4(C)C)c(=O)n([C@@H]3CC4CCC3(C)C4(C)C)c1=O)C2 | > 100 µM
O=C1NCCN1/N=C/c1c(Cl)n(-c2ccccc2)c2ccccc12 | > 100 µM
O=C(/C=C\c1ccc(Cl)c(Cl)c1)c1ccc(Cl)cc1Cl | > 100 µM
O=[N+]([O-])c1ccc(Oc2c(Cl)cc(S(=O)(=O)/N=C(\NO)Nc3ccc(Cl)cc3)cc2Cl)cc1 | 32.7 µM
OCc1ccc(-c2ccc(-c3ccc(CO)s3)o2)s1 | 17.2 µM
COc1ccc2c(c1)OCC1Cc3ccccc3OC21 (centres undefined) | > 100 µM
C#CC1(O)CCC2C3CCc4cc(Oc5nc(F)nc(-c6c7ccccc7c7sc8ccccc8n67)n5)ccc4C3CC[C@@]21C (some centres undefined) | > 100 µM
Cc1cc2c3c(nc4ccccc42)C(=O)c2ccccc2-c3n1 | 23.5 µM
CS(=O)c1ncc2c(n1)-c1ccccc1OC2 (centres undefined) | > 100 µM
COC1=CC(=O)C(C2CC(=O)c3c(O)cc(O)cc3O2)=CC1=O (centres undefined) | 34.8 µM
O=c1[nH]c(Nc2nc3ccccc3[nH]2)nc(O)c1-c1ccccc1 | > 100 µM
Cc1ccccc1S(=O)(=O)OC1NS(=O)(=O)c2ccccc21 (centres undefined) | > 100 µM

###

- System: TK-10 renal
- Experiment Description: NCI tumour cell line growth inhibition, 48 h
In this section, each of the compounds is paired with its reported TGI.
Measurement Type: TGI

Compound | Measurement Type | Reported Measurement
CCOP(=O)(OCC)C(c1ccc(F)cc1)N(C(=O)NC(F)(F)F)c1ccc(OC)cc1 (configuration not stated) | TGI | > 100 µM
CCN1CCN(c2nc(C)cc(N(CCNc3ccnc4cc(Cl)ccc34)Cc3ccc4c(c3)OCO4)n2)CC1 | TGI | 3.16 µM
Cc1nc(N)c(N2CCN([N+](=O)[O-])CC2)c(=O)[nH]1 | TGI | > 100 µM
CC1(C)C2CCC1(C)[C@H](n1c(=O)n([C@@H]3CC4CCC3(C)C4(C)C)c(=O)n([C@@H]3CC4CCC3(C)C4(C)C)c1=O)C2 | TGI | > 100 µM
Cc1ccc(-c2[nH]c(=O)n(C3OC(CO)C(O)C(O)C3O)c(=O)c2C#N)cc1 (configuration not stated) | TGI | > 100 µM
Cc1c(S(=O)(=O)c2ccccc2)c(N)n(CCN(C)C)c1C | TGI | > 100 µM
CN1CSC(=S)N(c2c3ccccc3nc3ccc(Br)cc23)C1 | TGI | 21.9 µM
CCN1c2ccccc2C(C(SC)S(=O)(=O)c2ccc(C)cc2)c2c1[nH]c(=O)n(C)c2=O (configuration not stated) | TGI | > 100 µM
Clc1ccc(C(c2ccc(Cl)cc2)c2ccccn2)cc1 | TGI | 45.3 µM
COc1ccc2c(c1)OCC1Cc3ccccc3OC21 (configuration not stated) | TGI | > 100 µM
OCCCCCNCc1cc2cc3c(cc2c2cc(OCc4ccccc4)ccc12)OCO3 | TGI | 2.95 µM
O=S(=O)(CCn1c(Sc2ccccc2)c(Sc2ccccc2)c2ccccc21)c1ccccc1 | TGI | > 100 µM

###

Measured TGI, listed per entry for reference.
- System: HCT-15 colon
- Experiment Description: NCI tumour cell line growth inhibition, 48 h

Molecule | TGI
CN(C)c1nc(=Nc2ccc(N=c3nc(N(C)C)ss3)cc2)ss1 | > 100 µM
O=C1OC(O)[C@@H]2[C@H]1[C@H]1CC[C@@H]2O1 (stereo not given in full) | > 100 µM
COc1ccc2c(c1)OCC1Cc3ccccc3OC21 (stereo not given) | > 100 µM
COP(=O)(/C=C/c1cc(C(=O)OCc2ccccc2)n(S(=O)(=O)c2ccccc2)c1)OC | > 100 µM
Cc1ccc(S(=O)(=O)N/N=C/C2(c3ccccc3)c3ccccc3-c3ccccc32)cc1 | 22.4 µM
CCNC(=O)Cc1nc2c(N)ncnc2n1C1OC(CO)C(O)C1O (stereo not given) | > 100 µM
CC(C)OP(=O)(OC(C)C)C(=NCCN=C(NNc1ccc([N+](=O)[O-])cc1)P(=O)(OC(C)C)OC(C)C)NNc1ccc([N+](=O)[O-])cc1 | > 100 µM
C[Si](C)(C)C1(Sc2ccccc2)SCCCS1 | > 100 µM
CC1=NS(=O)(=O)c2ccccc2N1 | > 100 µM
CCCCCCOc1ccc(C(=O)NOC)cc1 | > 100 µM
Cc1cc(/C=C/c2ccc3cc(N(C)C)ccc3[n+]2C)c(C)n1-c1ccccc1 | 6.3 µM
CCOC(=O)C(=C=C=C(c1ccccc1)c1ccccc1)C(=O)OCC | 49.1 µM
Clc1ccc(C(c2ccc(Cl)cc2)c2ccccn2)cc1 | 38 µM
Cc1ccc(-c2[nH]c(=O)n(C3OC(CO)C(O)C(O)C3O)c(=O)c2C#N)cc1 (stereo not given) | > 100 µM
O=c1[nH]c(Nc2nc3ccccc3[nH]2)nc(O)c1-c1ccccc1 | > 100 µM
Nc1ncnc2c1nnn2C1OC(CO)C(O)C1O (stereo not given) | 20.6 µM
COc1cc(NCc2ccc3oc(=O)c(-c4ccccc4)nc3c2)cc(OC)c1OC | > 10 µM
CCN(CC)CCn1c(=O)c2cccnc2n2c3c(=O)n(C)c(=O)n(C)c3nc12 | 27.3 µM
[Cl-].[La+3].[O-]/N=C(\c1ccccc1)c1ccccn1.[O-]/N=C(\c1ccccc1)c1ccccn1.[O-]/N=C(\c1ccccc1)c1ccccn1 | > 100 µM
NS(=O)(=O)c1cc(Br)c(N=Nc2ccc(O)c3ncccc23)c(Br)c1 | > 100 µM
COc1ccc(NC(=O)CC(=O)N2N=C(N3c4ccccc4Sc4ccccc43)CC2c2ccccc2)cc1 (stereo not given) | > 100 µM
COc1cc(/C=C2\CN(S(=O)(=O)c3ccccc3)C/C(=C\c3cc(CN4CCCC4)c(O)c(OC)c3)C2=O)cc(CN2CCCC2)c1O | 7.6 µM
N=C(N)SCc1ccc2c(c1)Sc1ccccc1O2 | 21.7 µM
O=c1c2sc(=S)n(-c3ccc(F)cc3)c2ncn1/N=C/c1ccc(F)cc1F | > 100 µM
ClCc1cccc(Cn2cnc3ncnc(Cl)c32)c1 | 4.34 µM
C/C(=N\NC(=S)NC(CCC(=O)O)C(=O)O)c1ccccn1 (stereo not given) | > 100 µM
CSc1nc(NC2OCC(OC(C)=O)C(OC(C)=O)C2OC(C)=O)c(N=CC=Nc2c(NC3OCC(OC(C)=O)C(OC(C)=O)C3OC(C)=O)nc(SC)[nH]c2=O)c(=O)[nH]1 (stereo not given) | > 100 µM
Cc1ccccc1S(=O)(=O)OC1NS(=O)(=O)c2ccccc21 (stereo not given) | > 100 µM
Cc1cccc2c1CC1(C2)Cc2c(C)cccc2C1=O (stereo not given) | > 100 µM
O=C(O)c1ccccc1CC1Cc2ccccc2C1=O (stereo not given) | > 100 µM
O=C(O)CCC(=O)OC1N=C(c2ccccc2Cl)c2cc([N+](=O)[O-])ccc2NC1=O (stereo not given) | > 100 µM
CCCCCCCCC/C=C1\CCC(CN2CCOCC2)C1=O (stereo not given) | 7.05 µM
Cc1cc(-c2ccc3nc(C4CCOCC4)n(CCOC(F)(F)F)c3c2)cn(C)c1=O | 4.23 µM
CC1(C)C2CCC1(C)[C@H](n1c(=O)n([C@@H]3CC4CCC3(C)C4(C)C)c(=O)n([C@@H]3CC4CCC3(C)C4(C)C)c1=O)C2 | > 100 µM
COC(=O)C1CCC(=O)N1C(c1ccc(OC)cc1)c1ccc2c(c1)OCO2 (stereo not given) | > 100 µM
